# assayed target: GST-LXRβ ligand-binding domain (Homo sapiens, UniProt P55055, INS174Q)
# Construct: amino acids 156-461; NP009052
# Sequence (P55055 with tags, fused parts or gaps INS174Q limits assumed): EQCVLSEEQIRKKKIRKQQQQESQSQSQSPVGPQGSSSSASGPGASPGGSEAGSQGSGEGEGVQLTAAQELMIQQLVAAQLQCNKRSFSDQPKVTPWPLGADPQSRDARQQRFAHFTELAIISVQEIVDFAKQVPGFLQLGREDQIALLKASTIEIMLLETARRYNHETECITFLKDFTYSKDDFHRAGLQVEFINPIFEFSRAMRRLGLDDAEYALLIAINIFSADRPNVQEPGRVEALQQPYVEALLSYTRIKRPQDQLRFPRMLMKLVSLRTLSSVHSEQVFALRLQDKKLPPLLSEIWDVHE
# experiment notes: TR-FRETβ activity assay (NCoA3 coactivator peptide recruitment)
# measurement parameters: 1 μM 24(S)-25-epoxycholesterol as prestimulating agonist; inverse agonist unless *
pEC50: −log10 of the molar value.
readout label: pEC50

These solved cases illustrate the format of a correct answer.
>  <molecule>
Cc1ccc2ccccc2c1C(=O)N(Cc1ccc(C(F)(F)F)o1)C1COc2cc(-c3cccc(C(C)(C)C(=O)O)c3)ccc21 (centres unmarked)

>  <assayed target>
GST-LXRβ ligand-binding domain (Homo sapiens, UniProt P55055, INS174Q)

>  <observed measurement>
< 5.00

$$$$
>  <molecule>
Cc1nc2ccccn2c1C(=O)N(Cc1ccc(-c2cccc(C(C)(C)C(=O)O)c2)cc1)Cc1ccc(C(F)(F)F)o1

>  <assayed target>
GST-LXRβ ligand-binding domain (Homo sapiens, UniProt P55055, INS174Q)

>  <observed measurement>
6.00 to 7.00

$$$$
>  <molecule>
Cc1nc2ccccc2c(C(=O)N(Cc2ccc(C(F)(F)F)o2)Cc2ccc(-c3cccc(C(C)(C)C(=O)O)c3)cc2C#N)c1C

>  <assayed target>
GST-LXRβ ligand-binding domain (Homo sapiens, UniProt P55055, INS174Q)

>  <observed measurement>
6.00 to 7.00

$$$$
>  <molecule>
CCc1nc2ccccc2c(C(=O)N(Cc2ccc(-c3cccc(C(C)(C)C(=O)O)c3)cc2)Cc2ccc(C(F)(F)F)o2)c1C

>  <assayed target>
GST-LXRβ ligand-binding domain (Homo sapiens, UniProt P55055, INS174Q)

>  <observed measurement>
5.00 to 6.00

$$$$
>  <molecule>
Cc1ccc2ccccc2c1C(=O)N(Cc1ccc(C(F)(F)F)o1)Cc1ccc(-c2cccc(S(=O)(=O)CC(=O)O)c2)cc1Cl

>  <assayed target>
GST-LXRβ ligand-binding domain (Homo sapiens, UniProt P55055, INS174Q)

>  <observed measurement>
6.00 to 7.00

$$$$
>  <molecule>
Cc1ccc2ccccc2c1CN(Cc1ccc(-c2ccnc(C(C)(C)C(=O)O)c2)cc1)Cc1ccc(C(F)(F)F)o1

>  <assayed target>
GST-LXRβ ligand-binding domain (Homo sapiens, UniProt P55055, INS174Q)

>  <observed measurement>
6.00 to 7.00

$$$$

q: Any idea what its pEC50 is? The molecule is CCc1cc(C)cc(C)c1CN(Cc1ccc(-c2cccc(S(=O)(=O)CC(=O)O)c2)cc1)Cc1ccc(C(F)(F)F)o1
a: 5.00 to 6.00

q: Any idea what its pEC50 is? The molecule is COc1cc(-c2cccc(S(=O)(=O)CC(=O)O)c2)ccc1CN(Cc1ccc(C(F)(F)F)o1)C(=O)c1c(C)ccc2ccccc12
a: 5.00 to 6.00

q: Any idea what its pEC50 is? The molecule is Cc1cc(C)c(CN(Cc2ccc(-c3cccc(C(C)(C)C(=O)O)c3)cc2)Cc2ccc(C(F)(F)F)o2)c(C)c1
a: > 7.00

q: Any idea what its pEC50 is? The molecule is COc1cc(-c2cccc(C(C)(C)C(=O)O)c2)ccc1CN(Cc1ccc(C(F)(F)F)o1)C(=O)c1c(C)ccc2ccccc12
a: 6.00 to 7.00

q: Any idea what its pEC50 is? The molecule is Cc1nn2ncccc2c1C(=O)N(Cc1ccc(-c2cccc(C(C)(C)C(=O)O)c2)cc1)Cc1ccc(C(F)(F)F)o1
a: 5.00 to 6.00

q: Any idea what its pEC50 is? The molecule is CC(C)(C(=O)O)c1cccc(-c2ccc(CN(Cc3ccc(C(F)(F)F)o3)Cc3c(OC(F)F)ccc4ccccc34)cc2)c1
a: > 7.00

q: Any idea what its pEC50 is? The molecule is Cc1nc2cccnc2c(C(=O)N(Cc2ccc(-c3cccc(C(C)(C)C(=O)O)c3)cc2)Cc2ccc(C(F)(F)F)o2)c1C
a: 6.00 to 7.00

q: Any idea what its pEC50 is? The molecule is Cc1ncc2ccccc2c1CN(Cc1ccc(-c2cccc(C(C)(C)C(=O)O)c2)cc1)Cc1ccc(C(F)(F)F)o1
a: 6.00 to 7.00
